Test system: HCI-027 (organoid from a triple-negative breast cancer xenograft)
PROTOCOL DESCRIPTION: CTG-3D luminescence at 96 h relative to day-0 seeding control (ratio to day 0); higher = more growth / less cytotoxicity; PDxO 3D drug screen (set 2), 96 h, CTG-3D normalised to day-0 seeding control.
CONDITION PARAMETERS: 12.5 pM; days in culture: 158
RECORDED METRIC: CTG-3D luminescence at 96 h
Respond with the number and no other words.

>  <TEST SMILES>
CCOc1ccn(-c2ccc(F)cc2)c(=O)c1C(=O)Nc1ccc(Oc2ccnc(N)c2Cl)c(F)c1

>  <CTG-3D luminescence at 96 h>
2.07

$$$$
>  <TEST SMILES>
CC(C)n1nc(-c2ccc3oc(N)nc3c2)c2c(N)ncnc21

>  <CTG-3D luminescence at 96 h>
1.38

$$$$

Using known records, supply CTG-3D luminescence at 96 h for Nc1cc(C(F)(F)F)c(-c2cc(N3CCOCC3)nc(N3CCOCC3)n2)cn1 2.38

Provide CTG-3D luminescence at 96 h value for the following compound: C[C@@H](Nc1cc(F)cc(F)c1)c1cc(C(=O)N(C)C)cc2c(=O)cc(N3CCOCC3)oc12 0.987
